Hello, the source for this data is patent US20220177587A1, in case you need it.

# measured_target: human CTLA-4 (human) (UniProt P16410)
# Sequence (P16410 36-223): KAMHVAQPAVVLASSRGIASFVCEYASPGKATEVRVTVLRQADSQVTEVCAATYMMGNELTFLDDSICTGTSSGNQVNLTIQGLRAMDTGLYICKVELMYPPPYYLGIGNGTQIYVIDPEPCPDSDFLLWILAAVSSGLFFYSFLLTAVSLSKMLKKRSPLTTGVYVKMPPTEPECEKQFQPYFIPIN
# assay_summary: flow cytometry, CHO cells expressing huCTLA4, vs WT CD80 ECD-Fc (R&D)
readout: Fold change to WT CD80 (fold)

binder	Fold change to WT CD80, fold
variant CD80 IgV-Fc E35D/M47I/T62S/L85Q (Fc fusion) VIHVTKEVKEVATLSCGHNVSVEELAQTRIYWQKDKKMVLTMMSGDINIWPEYKNRTIFDISNNLSIVILALRPSDEGTYECVVQKYEKDAFKREHLAEVTLSVKAD	1.91
variant CD80 IgV-Fc E35D/D46E/M47V/N63D/L85Q (Fc fusion) VIHVTKEVKEVATLSCGHNVSVEELAQTRIYWQKDKKMVLTMMSGEVNIWPEYKNRTIFDITDNLSIVILALRPSDEGTYECVVQKYEKDAFKREHLAEVTLSVKAD	1.74

a: variant CD80 IgV-Fc E35D/T41S/M43V/M47I/L70M/A71G (Fc fusion) VIHVTKEVKEVATLSCGHNVSVEELAQTRIYWQKDKKMVLSMVSGDINIWPEYKNRTIFDITNNLSIVIMGLRPSDEGTYECVVLKYEKDAFKREHLAEVTLSVKAD
b: variant CD80 IgV-Fc R29H/E35D/M43V/M47I/I49V (Fc fusion) VIHVTKEVKEVATLSCGHNVSVEELAQTHIYWQKDKKMVLTMVSGDINVWPEYKNRTIFDITNNLSIVILALRPSDEGTYECVVLKYEKDAFKREHLAEVTLSVKAD
c: variant CD80 IgV-Fc Q33L/E35D/M47I/N48D/A71G (Fc fusion) VIHVTKEVKEVATLSCGHNVSVEELAQTRIYWLKDKKMVLTMMSGDIDIWPEYKNRTIFDITNNLSIVILGLRPSDEGTYECVVLKYEKDAFKREHLAEVTLSVKAD
**Query** List items by Fold change to WT CD80 in falling order. Give me the labels in the order the question wants.
**Result** a, c, b
(a: 1.59 fold, c: 0.74 fold, b: 0.03 fold)
